targetOfAssay: Voltage-dependent T-type calcium channel subunit alpha-1H (Homo sapiens);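 further: channel activity triggered by adding a high calcium stimulation buffer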
Sequence (O95180 whole entry): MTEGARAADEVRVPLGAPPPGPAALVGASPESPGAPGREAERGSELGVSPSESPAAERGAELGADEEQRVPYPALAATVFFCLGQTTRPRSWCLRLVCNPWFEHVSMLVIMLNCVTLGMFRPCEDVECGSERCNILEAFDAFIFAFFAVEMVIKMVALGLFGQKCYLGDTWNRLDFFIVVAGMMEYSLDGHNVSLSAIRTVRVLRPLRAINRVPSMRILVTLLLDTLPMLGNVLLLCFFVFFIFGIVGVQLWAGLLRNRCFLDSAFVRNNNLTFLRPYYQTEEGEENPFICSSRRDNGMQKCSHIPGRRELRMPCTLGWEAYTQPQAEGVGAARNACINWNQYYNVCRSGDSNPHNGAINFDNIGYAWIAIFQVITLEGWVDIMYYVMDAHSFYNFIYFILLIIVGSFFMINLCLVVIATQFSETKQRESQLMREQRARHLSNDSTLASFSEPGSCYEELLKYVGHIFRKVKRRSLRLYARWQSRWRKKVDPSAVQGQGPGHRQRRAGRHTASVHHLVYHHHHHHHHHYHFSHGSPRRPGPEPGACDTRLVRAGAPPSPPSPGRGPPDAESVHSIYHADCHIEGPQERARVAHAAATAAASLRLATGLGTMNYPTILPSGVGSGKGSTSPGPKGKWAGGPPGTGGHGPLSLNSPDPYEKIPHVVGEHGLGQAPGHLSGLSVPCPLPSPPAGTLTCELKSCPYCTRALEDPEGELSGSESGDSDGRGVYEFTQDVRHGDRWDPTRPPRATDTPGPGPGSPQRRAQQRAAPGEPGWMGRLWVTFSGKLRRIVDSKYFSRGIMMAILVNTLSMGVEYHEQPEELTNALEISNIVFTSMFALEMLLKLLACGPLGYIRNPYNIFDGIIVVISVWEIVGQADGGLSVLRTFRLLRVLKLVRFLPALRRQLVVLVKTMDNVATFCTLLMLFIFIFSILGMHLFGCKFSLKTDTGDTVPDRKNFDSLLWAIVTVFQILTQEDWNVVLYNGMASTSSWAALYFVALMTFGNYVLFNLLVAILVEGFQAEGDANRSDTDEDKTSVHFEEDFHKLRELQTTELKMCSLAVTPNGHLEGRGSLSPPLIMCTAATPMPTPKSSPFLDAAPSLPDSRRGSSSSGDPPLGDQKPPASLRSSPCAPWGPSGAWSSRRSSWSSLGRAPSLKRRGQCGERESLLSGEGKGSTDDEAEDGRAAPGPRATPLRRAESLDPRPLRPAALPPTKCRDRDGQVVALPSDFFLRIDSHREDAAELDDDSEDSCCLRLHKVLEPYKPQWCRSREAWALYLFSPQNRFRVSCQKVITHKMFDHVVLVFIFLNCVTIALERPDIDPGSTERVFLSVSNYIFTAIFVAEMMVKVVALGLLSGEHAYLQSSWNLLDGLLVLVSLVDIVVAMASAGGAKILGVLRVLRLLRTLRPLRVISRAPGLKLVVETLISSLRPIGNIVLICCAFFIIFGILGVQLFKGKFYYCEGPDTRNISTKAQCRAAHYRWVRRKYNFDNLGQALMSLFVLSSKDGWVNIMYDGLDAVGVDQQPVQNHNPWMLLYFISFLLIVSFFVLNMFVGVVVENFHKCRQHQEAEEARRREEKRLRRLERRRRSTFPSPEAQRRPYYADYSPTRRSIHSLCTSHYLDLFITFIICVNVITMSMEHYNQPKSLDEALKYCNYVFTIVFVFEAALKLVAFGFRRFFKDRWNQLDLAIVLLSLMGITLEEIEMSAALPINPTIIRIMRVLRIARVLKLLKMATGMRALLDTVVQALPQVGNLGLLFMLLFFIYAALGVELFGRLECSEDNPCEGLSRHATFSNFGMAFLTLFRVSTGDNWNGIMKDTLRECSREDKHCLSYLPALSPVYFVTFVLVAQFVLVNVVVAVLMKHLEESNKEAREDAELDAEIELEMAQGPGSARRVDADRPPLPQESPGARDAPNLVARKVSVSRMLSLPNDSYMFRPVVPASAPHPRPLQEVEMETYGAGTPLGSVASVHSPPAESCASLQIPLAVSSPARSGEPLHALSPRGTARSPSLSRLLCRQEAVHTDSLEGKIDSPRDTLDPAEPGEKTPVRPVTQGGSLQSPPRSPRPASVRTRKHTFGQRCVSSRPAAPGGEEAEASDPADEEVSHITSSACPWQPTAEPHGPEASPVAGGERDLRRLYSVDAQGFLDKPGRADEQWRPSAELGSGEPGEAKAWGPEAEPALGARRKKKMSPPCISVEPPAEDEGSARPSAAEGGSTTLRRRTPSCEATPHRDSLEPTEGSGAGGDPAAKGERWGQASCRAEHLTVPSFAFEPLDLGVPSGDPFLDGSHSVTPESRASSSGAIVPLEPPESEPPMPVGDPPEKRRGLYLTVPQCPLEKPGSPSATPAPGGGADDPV
Format: functional
Calls of active or inactive are those of the source.
quantityName: EC50

* Cc1ccc(-c2noc(CCC(=O)N(C)c3ccccc3C)n2)cc1 | 4.56 µM (active)
* CCc1ccccc1N(C)C(=O)CCc1nc(-c2ccc(C)cc2)no1 | 5.38 µM (active)
* Cc1cccc(C(=O)N2CCN(c3ccc(C(F)(F)F)cn3)CC2)c1C | 9.85 µM (active)
* COc1ccc(CSc2nnc(Cc3sc(-c4ccccc4)nc3-c3ccccc3)o2)cc1 | 5.33 µM (active)

###

targetOfAssay: SUMO-activating enzyme (Homo sapiens, UniProt Q9UBT2)
Sequence (Q9UBE0 whole entry): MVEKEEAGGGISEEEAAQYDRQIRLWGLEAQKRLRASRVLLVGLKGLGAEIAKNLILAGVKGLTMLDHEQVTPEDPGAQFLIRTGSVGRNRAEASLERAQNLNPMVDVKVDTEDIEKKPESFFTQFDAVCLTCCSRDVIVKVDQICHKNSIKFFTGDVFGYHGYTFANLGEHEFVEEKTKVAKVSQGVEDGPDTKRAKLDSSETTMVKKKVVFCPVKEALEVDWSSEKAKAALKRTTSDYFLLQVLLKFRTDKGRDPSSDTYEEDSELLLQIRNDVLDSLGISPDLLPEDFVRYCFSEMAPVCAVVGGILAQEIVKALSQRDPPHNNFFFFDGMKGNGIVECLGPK
Sequence (Q9UBT2 whole entry): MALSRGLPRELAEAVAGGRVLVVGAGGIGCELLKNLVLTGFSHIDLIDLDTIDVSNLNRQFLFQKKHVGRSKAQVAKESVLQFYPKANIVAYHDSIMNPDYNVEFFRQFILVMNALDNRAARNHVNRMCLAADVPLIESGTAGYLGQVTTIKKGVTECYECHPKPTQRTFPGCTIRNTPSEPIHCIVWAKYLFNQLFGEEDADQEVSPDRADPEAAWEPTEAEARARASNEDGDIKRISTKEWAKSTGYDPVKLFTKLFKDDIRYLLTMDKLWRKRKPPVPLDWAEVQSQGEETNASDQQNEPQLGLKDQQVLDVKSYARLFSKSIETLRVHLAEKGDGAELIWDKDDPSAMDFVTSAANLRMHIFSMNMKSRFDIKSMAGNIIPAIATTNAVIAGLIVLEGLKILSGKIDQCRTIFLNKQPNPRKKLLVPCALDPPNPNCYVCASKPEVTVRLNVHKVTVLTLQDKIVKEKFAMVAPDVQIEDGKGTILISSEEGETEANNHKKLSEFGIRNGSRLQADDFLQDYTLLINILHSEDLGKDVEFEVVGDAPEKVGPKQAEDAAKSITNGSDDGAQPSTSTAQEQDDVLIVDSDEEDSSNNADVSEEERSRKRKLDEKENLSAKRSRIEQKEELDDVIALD
procedureText: inhibitors of in vitro SUMOylation cascade, primary screen, biochemical, HTRF, uHTS (AID 2006)
Assay type: protein-complex assay
Active and inactive are the calls of the source.
quantityName: IC50

- CCC(C)(C)C1CCc2c(sc(NC(=O)c3ccccc3C(=O)O)c2C#N)C1 (centres undefined): 21.4 µM (active)
- O=C(Nc1nc(-c2ccccc2)cs1)c1ccccc1NS(=O)(=O)c1ccc(F)cc1: 18.4 µM (active)
- COc1ccc(/C=N/Nc2cc(N3CCCC3)nc(N3CCCC3)n2)cc1: 2.31 µM (active)
- Cc1ccc(NC(=O)Cn2nc(C(=O)Nc3ccc(C)cc3)ccc2=O)cc1: 18.3 µM (active)

###

targetOfAssay: Sentrin-specific protease 8 (Homo sapiens)
Sequence (Q96LD8 whole entry): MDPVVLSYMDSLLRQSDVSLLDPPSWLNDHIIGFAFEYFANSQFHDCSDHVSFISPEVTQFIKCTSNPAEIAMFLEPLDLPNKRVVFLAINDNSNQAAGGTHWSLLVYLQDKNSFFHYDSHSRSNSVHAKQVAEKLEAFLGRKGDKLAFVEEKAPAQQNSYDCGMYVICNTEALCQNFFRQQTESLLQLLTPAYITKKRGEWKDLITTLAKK
Assay type: functional
Activity calls are given as the source filed them.
IC50 values by entry
quantityName: IC50

- COc1ccc(N2C(=O)[C@@H]3[C@H](C2=O)[C@H]2c4ccccc4C=CN2[C@@H]3C(C)=O)cc1: 1.19 µM (active)
- O=C(Cc1ccccc1)c1nc2ccccc2s1: 26.7 µM (active)
- Cc1cc2c(NC(=O)CC(C)(C)CC(=O)O)cccc2nn1: 15.1 µM (active)
- CCOc1cc(NC2CS(=O)(=O)CC2O)c(OCC)cc1NC(=O)c1ccccc1 (centres undefined): 34.7 µM (active)

###

EC50 values by entry
targetOfAssay: Short transient receptor potential channel 4 (Mus musculus, UniProt Q9QUQ5)
Sequence (Q9QUQ5 whole entry): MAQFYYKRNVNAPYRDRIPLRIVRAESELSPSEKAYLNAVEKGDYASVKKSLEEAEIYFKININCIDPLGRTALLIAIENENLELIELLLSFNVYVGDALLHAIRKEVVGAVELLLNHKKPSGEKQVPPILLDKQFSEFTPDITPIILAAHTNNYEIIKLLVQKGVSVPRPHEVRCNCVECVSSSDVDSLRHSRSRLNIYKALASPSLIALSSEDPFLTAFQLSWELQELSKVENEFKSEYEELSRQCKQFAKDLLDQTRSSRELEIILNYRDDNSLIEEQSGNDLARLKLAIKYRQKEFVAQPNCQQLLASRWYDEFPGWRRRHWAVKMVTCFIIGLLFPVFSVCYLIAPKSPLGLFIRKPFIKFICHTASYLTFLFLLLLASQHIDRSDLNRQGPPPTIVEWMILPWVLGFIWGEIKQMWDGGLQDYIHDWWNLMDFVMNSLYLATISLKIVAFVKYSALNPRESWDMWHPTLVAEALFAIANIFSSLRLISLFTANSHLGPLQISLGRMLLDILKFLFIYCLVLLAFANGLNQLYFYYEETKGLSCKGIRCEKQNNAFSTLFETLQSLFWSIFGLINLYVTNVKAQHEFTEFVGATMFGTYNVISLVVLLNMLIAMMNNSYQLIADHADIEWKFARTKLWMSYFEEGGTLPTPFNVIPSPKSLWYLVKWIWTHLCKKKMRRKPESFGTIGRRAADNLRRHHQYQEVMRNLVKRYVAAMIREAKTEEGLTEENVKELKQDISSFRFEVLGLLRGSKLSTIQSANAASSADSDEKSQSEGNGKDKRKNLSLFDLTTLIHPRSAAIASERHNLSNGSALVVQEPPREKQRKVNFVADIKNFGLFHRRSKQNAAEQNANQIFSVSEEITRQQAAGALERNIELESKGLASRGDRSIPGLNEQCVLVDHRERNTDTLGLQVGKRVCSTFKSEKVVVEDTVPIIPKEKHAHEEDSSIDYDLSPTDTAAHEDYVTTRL
procedureText: mouse TRPC4 channel activators, dose response, cell-based, HEK293 TRPC4/mu-opioid, Fluo-4 calcium (AID 434937)
Format: functional
The source made the active and inactive calls.
quantityName: EC50

- Cc1c(Cl)cccc1NC(S)=NCC(c1cccnc1)N(C)C (centres undefined): 1.3 nM (active)
- CN(C)C(CNC(=O)c1ccc2[nH]cnc2c1)c1ccccc1 (centres undefined): 473 nM (active)
- CC1(c2ccc(Cl)cc2Cl)OCC(Cn2ccnc2)O1 (centres undefined): 2370 nM (active)
- CCOc1ccc(S(=O)(=O)Nc2cccc(C(=O)NCC(c3ccccc3)N(C)C)c2)cc1 (centres undefined): 2990 nM (active)

###

IC50 values by entry
targetOfAssay: Rac GTPase-activating protein 1 (Homo sapiens, UniProt Q9H0H5)
Sequence (Q9H0H5 whole entry): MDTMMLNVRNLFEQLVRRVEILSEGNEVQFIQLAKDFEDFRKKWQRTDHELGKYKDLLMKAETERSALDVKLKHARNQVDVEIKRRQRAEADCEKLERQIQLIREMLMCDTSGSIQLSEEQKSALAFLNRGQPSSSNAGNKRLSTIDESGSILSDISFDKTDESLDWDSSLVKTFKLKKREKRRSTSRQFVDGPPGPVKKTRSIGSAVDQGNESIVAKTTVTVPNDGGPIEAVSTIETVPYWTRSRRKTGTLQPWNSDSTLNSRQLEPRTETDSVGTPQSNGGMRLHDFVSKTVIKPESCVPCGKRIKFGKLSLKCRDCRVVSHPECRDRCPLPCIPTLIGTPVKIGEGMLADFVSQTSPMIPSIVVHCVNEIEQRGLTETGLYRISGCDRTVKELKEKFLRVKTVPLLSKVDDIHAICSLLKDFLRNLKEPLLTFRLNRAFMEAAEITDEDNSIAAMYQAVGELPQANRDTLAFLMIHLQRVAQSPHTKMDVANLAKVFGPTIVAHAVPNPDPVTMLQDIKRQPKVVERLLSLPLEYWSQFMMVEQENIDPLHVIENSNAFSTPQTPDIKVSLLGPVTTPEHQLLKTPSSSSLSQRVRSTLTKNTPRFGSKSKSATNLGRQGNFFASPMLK
procedureText: MgcRacGAP GTPase-activating activity inhibitors, confirmation, biochemical, ADP Hunter fluorescence, primary and confirmatory (AID 624330)
Format: functional
Calls of active or inactive are those of the source.
quantityName: IC50

• COc1ccc(S(=O)(=O)/N=C2\C=C(Nc3ccc(O)cc3)C(=O)c3ccccc32)cc1 = 50.7 µM (active)
• Nc1ccc2c(c1)[nH]c(=O)c1cc(N)ccc12 = 10.9 µM (active)
• Nc1ccc(N2CCOCC2)c(Cl)c1 = 38.2 µM (active)
• CCN(CC(=O)Nc1cc(Cl)ccc1OC)CC(=O)NC1CCS(=O)(=O)C1 (centres undefined) = 95.7 µM (active)
